Recorded values, source patent US20190359693A1.

# TARGET OR SYSTEM: hemagglutinin (HA) of influenza virus H5N1 A/Vietnam/1194/04 (influenza A virus)
# ASSAY METHOD TEXT: cell-based or functional assay
READOUT: average neutralization titer (nM)
Give bare numbers, in nM.

Inquiry: Answer with the recorded average neutralization titer of MD2310 (bispecific antibody) EVQLVESGGGLVQPGGSLRLSCAATGFTLENKAIGWFRQTPGSEREGVLCISKSGSWTYYTDSMRGRFTISRDNAENTVYLQMDSLKPEDTAVYYCATTTAGGGLCWDGTTFSRLASSWGQGTQVTVSSGGGGSGGGGSEVQLVESGGGLVQAGDSLRLSCAASGPTFGMSAMGWFRQAPGKEREFVAAISGLGNPNYSDDVKGRFTISRENGRNTVYLQMNSLKPEDTAVYYCAQRKVYHVQGGDRPQAYDYWGQGTQVTVSSGGGGSGGGGSEVQLVESGGGLVQAGDSLRISCAASGRTLSIYSMGWFRQAPGKEREFVATIGWNSGRTFYPDSLKGRFTISRDNARNTLYLQMNNLRPEDTAVYYCAAAKGPLRLSSQADYWGQGTQVTVSS only.
Reply text: 21.6
